- protocol.text: E. coli DRC41 culture turbidity changes, primary screen, E. coli filamentation inducer project, strain DRC41, OD650, 48 h (AID 1152);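 note: E. coli MC1000 strain DRC41 lacking acrAB efflux pump and sulA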
- test.parameters: E. coli DRC41 (acrAB sulA), higher = more signal, called active from +8 up or from −8 down
Categories are assigned from the measured z-score using these intervals: category 1 = under -0.6, category 2 = from -0.6 up to 0.3, category 3 = 0.3 and over

{"compound": "CC(C)C(CO)N1C(=O)[C@@H]2C3C(=O)OCCC/C=C\\[C@H]3OC23C=CCN(CCN2CCOCC2)C(=O)[C@@H]13 (some centres undefined)", "answer.label": "category 2"}
{"compound": "NCCCCCCNC(=O)[C@@H]1C[C@@H]2C(=O)NCC(=O)N2[C@@H]1c1ccc(O)cc1", "answer.label": "category 3"}
{"compound": "C=C[C@H](CO[Si](CC)(CC)CC)N(Cc1ccc(OC(C)=O)c(OC)c1)S(=O)(=O)c1ccc(Br)cc1", "answer.label": "category 3"}
{"compound": "COCCOC(=O)N1C(=O)[C@@]2(c3cc(C#CCNC(N)=O)ccc31)[C@H](C(=O)Nc1nc3ccccc3s1)[C@H]1C(=O)O[C@H](c3ccccc3)[C@H](c3ccccc3)N1[C@@H]2c1ccc(OCCO)cc1", "answer.label": "category 2"}
{"compound": "O=C1C[C@@](C(=O)NCC(F)(F)F)(c2ccc([N+](=O)[O-])cc2)[C@@H](c2ccc(CO)cc2I)N1C1CCCCC1", "answer.label": "category 1"}
{"compound": "CC(C)CNC(=O)[C@@]1(Cc2ccccc2I)c2ccccc2C(=O)N(C2CCCCC2)[C@H]1c1ccc(CO)cc1", "answer.label": "category 1"}
{"compound": "CN(C)CCCCCCNC(=O)[C@H]1C[C@H]2C(=O)N3CCC[C@H]3C(=O)N2[C@H]1c1ccc(O)cc1", "answer.label": "category 3"}
{"compound": "COc1ccc(/C=C/C=O)cc1", "answer.label": "category 2"}
{"compound": "CC#CC(=O)Oc1ccccc1C=CC(=O)OCC", "answer.label": "category 2"}
{"compound": "C=C[C@@H](COC(=O)OC(C)(C)C)N(Cc1ccc(OC)cc1)S(=O)(=O)c1ccc(Br)cc1", "answer.label": "category 1"}
{"compound": "COC(=O)[C@H](Cc1ccccc1)N[C@@H](/C=C/C1CC1)[C@H](O)Cc1ccccc1", "answer.label": "category 2"}
{"compound": "O=C(NC1CC1)[C@@H]1c2ccccc2C(=O)N(Cc2ccccc2Cl)[C@H]1c1ccc(CO)cc1", "answer.label": "category 3"}
{"compound": "N#Cc1ccc(NN2C(C(O)C(c3ccccc3)c3ccccc3)C=CC3C(=O)N(c4ccccc4)C(=O)C32)cc1 (centres undefined)", "answer.label": "category 2"}
{"compound": "C=CCN1C(=O)[C@]2(O[C@H](CCn3cc([C@H](O)c4ccccc4)nn3)[C@@H]([Si](C)(C)c3ccc(OC)cc3)[C@@H]2C)c2cc(N3CCC3=O)ccc21", "answer.label": "category 3"}
{"compound": "COc1cc2c(cc1O)C(C1CC1)N(Cc1sc3ccccc3c1Cl)CC2 (centres undefined)", "answer.label": "category 1"}
{"compound": "COCCOC(=O)N1C(=O)[C@@]2(c3ccccc31)[C@H](C(=O)N1CCc3cc(OC)c(OC)cc3C1)[C@H]1C(=O)O[C@H](c3ccccc3)[C@H](c3ccccc3)N1[C@@H]2c1ccc(OCCO)cc1", "answer.label": "category 3"}
{"compound": "O=C(CS)NCCCCCCNC(=O)[C@@H]1C[C@@H]2C(=O)N[C@@H](Cc3ccccc3)C(=O)N2[C@@H]1c1cccc(OCCO)c1", "answer.label": "category 1"}
{"compound": "CCN(CC)c1ccc(N2CC=CC34O[C@@H]5C=CCCOC(=O)C5[C@H]3C(=O)N(CCCCCCO)[C@@H]4C2=O)cc1 (some centres undefined)", "answer.label": "category 3"}
{"compound": "COc1cc(NN2C(C(O)c3ccco3)C=CC3C(=O)N(c4ccccc4)C(=O)C32)cc(OC)c1OC (centres undefined)", "answer.label": "category 1"}
{"compound": "COC(=O)[C@@]1(Cc2ccccc2)[C@H]2c3cc(C(=O)N(C)C)n(Cc4ccsc4Br)c3C[C@H]2CN1C(=O)c1ccccc1", "answer.label": "category 1"}
{"compound": "COCCOC(=O)N1C(=O)[C@@]2(c3cc(C#CCC(C(=O)OC)C(=O)OC)ccc31)[C@H](c1ccccc1OCCO)N1[C@H](c3ccccc3)[C@H](c3ccccc3)OC(=O)[C@H]1[C@@H]2C(=O)N1CCN(c2ncccn2)CC1", "answer.label": "category 3"}
{"compound": "COC(=O)[C@@]1(Cc2ccc(F)cc2)[C@H]2c3cc(C(=O)N4CCCC4)n(Cc4ccc(S(C)(=O)=O)cc4)c3C[C@H]2CN1C(=O)c1ccccc1", "answer.label": "category 1"}
{"compound": "CN(C)C(=O)[C@@]1(CCS(=O)(=O)c2ccccc2)COC(c2ccc(OCCCO)cc2)=N1", "answer.label": "category 2"}
{"compound": "CCOC(=O)[C@H]1C/C=C/C[C@H](C(=O)OCC)C(=O)O[C@H]2[C@@H](OC)O[C@H](CO)[C@@H](OC(=O)c3c(OC)cccc3OC)[C@@H]2OC1=O", "answer.label": "category 1"}
{"compound": "COC(=O)[C@@]1(CCS(=O)(=O)c2ccccc2)N=C(c2ccc(OCCCO)cc2)O[C@H]1c1ccccc1CN=[N+]=[N-]", "answer.label": "category 2"}
{"compound": "COC(=O)[C@]1(CCC(=O)OC(C)(C)C)N=C(c2ccc(OCCCO)cc2)O[C@@H]1c1ccccc1CN=[N+]=[N-]", "answer.label": "category 1"}
{"compound": "CCOC(=O)C[C@H]1[C@H](OC(=O)c2ccc(C(=O)c3ccccc3)cc2)[C@@H](NC(=O)CC(C)C)c2cc(OCCCO)ccc2N1C(=O)c1ccc2ccccc2n1", "answer.label": "category 3"}
{"compound": "C=CCOC(=O)[C@@H]1[C@H]2C(=O)O[C@H](c3ccccc3)[C@H](c3ccccc3)N2[C@H](c2ccc(OCCOC(=O)[C@@H]3C[C@@H]4C(=O)NCC(=O)N4[C@@H]3c3ccc(O)cc3)cc2)[C@@]12C(=O)Nc1ccc(I)cc12", "answer.label": "category 2"}

====

Overview of reported composite z-score across a group of compounds:
- protocol.text: small-molecule binders of probe aNOTCH2, primary screen, biochemical, small-molecule microarray, 635/667 nm fluorescence (AID 1121);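 note: score merges feature fluorescence read at 667 nm with its signal to noise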
- test.parameters: higher = more signal
measurement.kind: composite z-score

{"compound": "O=C1C2C=CC(C(O)Cc3ccccc3)N(n3cnnc3)C2C(=O)N1Cc1ccccc1 (configuration not stated)", "measurement.kind": "composite z-score", "test.result": 0.0248}
{"compound": "COC(=O)[C@@]1(Cc2ccc(F)cc2)[C@H]2c3cc(C(=O)N4CCCC4)n(CCCNc4ncc(C(F)(F)F)cc4Cl)c3C[C@H]2CN1C(=O)c1ccccc1", "measurement.kind": "composite z-score", "test.result": 0.362}
{"compound": "C[N+](C)(C)CCCCNC(=O)[C@@H]1C[C@@H]2C(=O)N[C@@H](Cc3ccccc3)C(=O)N2[C@@H]1c1cccc(OCCO)c1", "measurement.kind": "composite z-score", "test.result": -0.199}
{"compound": "COc1ccc([Si](C)(C)[C@H]2[C@H](CCO)O[C@@]3(C(=O)N(Cc4ccc(N(C=O)c5ccccc5)cc4)c4ccccc43)[C@@H]2C)cc1", "measurement.kind": "composite z-score", "test.result": -0.164}
{"compound": "[N-]=[N+]=NCc1ccccc1C[C@]1(C(=O)N2CCCCC2)N=C(c2ccc(OCCCO)cc2)O[C@H]1c1ccccc1N=[N+]=[N-]", "measurement.kind": "composite z-score", "test.result": 0.0097}
{"compound": "O=C1c2ccccc2[C@](Cc2ccccc2I)(C(=O)NCCN2CCOCC2)[C@H](c2ccc(CO)cc2)N1C1CCCCC1", "measurement.kind": "composite z-score", "test.result": -0.052}
{"compound": "C=C(COC)C(=O)CC[C@@H](OC(C)=O)c1ccc(CO)o1", "measurement.kind": "composite z-score", "test.result": 0.169}

====

- protocol.text: HepG2 cell viability effects, profiling panel, calcein-AM fluorescence, 48 h, basal (AID 1164); note: test concentration not given here
- test.parameters: higher = more signal

{"compound": "[N-]=[N+]=Nc1ccccc1[C@H]1OC(c2ccc(OCCCO)cc2)=N[C@@]1(CCS(=O)(=O)c1ccccc1)C(=O)NCC(O)CO (some centres not stated)", "z-score": 0.0911}
{"compound": "CCCC[C@H]1OB(O)C[C@H]2C1=C(COC)Cn1c(=O)n(-c3ccccc3)c(=O)n12", "z-score": -0.136}
{"compound": "C=CCN1C(=O)[C@]2(O[C@H](CCn3cc([C@H](O)c4ccccc4)nn3)[C@@H]([Si](C)(C)c3ccc(OC)cc3)[C@@H]2C)c2cc(N3CCC3=O)ccc21", "z-score": -1.39}
{"compound": "CC1(C)C2C=C(C(O)C3C=CC4C(=O)NC(=O)C4N3Nc3ccc(Cl)cc3Cl)C[C@@H]1C2 (some centres not stated)", "z-score": -1.8}
{"compound": "O=C(c1ccccc1)N1Cc2ccccc2C[C@@]2(COC(c3ccc(OCCCO)cc3)=N2)C1=O", "z-score": 0.81}
{"compound": "CC(C)C[C@@H]1NC(=O)[C@@H]2C[C@H](C(=O)NCc3ccc(F)cc3)[C@H](c3cccc(OCCO)c3)N2C1=O", "z-score": 0.259}
{"compound": "O=C1O[C@H](c2ccccc2)[C@H](c2ccccc2)N2[C@H]1[C@@H](C(=O)N1CCCCCCC1)[C@]1(C(=O)Nc3ccc(C#CC4=CCCCC4)cc31)[C@H]2c1ccc(OCCO)cc1", "z-score": -0.103}
